T. mentagrophytes CDC data, read-out MIC
Note: unit µg/mL is implicit; provide only the numeric part.

The cases that follow already have their MIC on record.
Compound: C=C1C(=O)c2ccccc2OC1c1ccc(C#N)cc1 (stereo not shown)
Reported: 25
//
Compound: C=C1C(=O)c2ccccc2OC1c1cccc(Cl)c1 (stereo not shown)
Reported: 12.5
//
Compound: C=C1C(=O)c2ccccc2OC1c1ccccc1 (stereo not shown)
Reported: 12.5
//
Compound: C=C1C(=O)c2cc(C)ccc2OC1c1ccccc1 (stereo not shown)
Reported: 6.2

Continue with the next compound.
If you can, please state the reported MIC value of C=C1C(=O)c2ccccc2OC1(c1ccccc1)c1ccncc1 (stereo not shown) .
25

----------
Tested on: C. guillermondii VM 42
The entries below come with measured MIC values attached.
# output: bare number, implied unit µg/mL

Can you look up the measured MIC of C=C1C(=O)c2cc(C)ccc2OC1c1ccccc1 (stereo not drawn) for me?
25

Which MIC reading was recorded for the compound C=C1C(=O)c2ccccc2OC1c1ccc(OC)cc1 (stereo not drawn) ?
100

Please give the measured MIC for this compound: C=C1C(=O)c2ccccc2OC1c1ccc(Cl)cc1 (stereo not drawn)
25

Which MIC is reported for this compound? C=C1C(=O)c2ccccc2OC1c1ccccc1 (stereo not drawn)
100

Returns the measured MIC for the input compound. Input: C=C1C(=O)c2ccccc2OC1c1ccc([N+](=O)[O-])cc1 (stereo not drawn)
50

Which measured MIC value corresponds to C=C1C(=O)c2ccccc2OC1c1cccc([N+](=O)[O-])c1 (stereo not drawn) ?
100

Look at this compound and give its reported MIC. C=C1C(=O)c2ccccc2OC1c1cccc(Cl)c1 (stereo not drawn)
50

Item under review: C=C1C(=O)c2ccccc2OC1c1ccc(C)cc1 (stereo not drawn) . Reported MIC?
50

----------
System: A. fumigatus NRRL 163
Quantity: MIC (µg/mL)
Kindly provide the numeric value in µg/mL only, without the unit symbol.

Example entries and their recorded answers appear below.
Compound: C=C1C(=O)c2ccccc2OC1(c1ccccc1)c1cccs1 (stereo not shown) [Ex. 21, 3-Methylene-2-(2-thienyl) flavanone]
MIC [µg/mL]: 100
//
Compound: C=C1C(=O)c2ccccc2OC1c1ccc(OC)cc1 (stereo not shown) [Ex. 8, 4'-methoxy-3-methylene flavanone]
MIC [µg/mL]: 50
//
Compound: C=C1C(=O)c2ccccc2OC1c1ccc(Cl)cc1 (stereo not shown) [Ex. 3, 4'-chloro-3-methylene flavanone]
MIC [µg/mL]: 6.2

Then there is this compound:
Fill in the recorded MIC for this compound, with A. fumigatus NRRL 163 as test system: C=C1C(=O)c2ccc(OC)cc2OC1c1ccc(Cl)cc1 (stereo not shown) [Ex. 18]
12.5

----------
Notes on MIC obtained with C. albicans NRRL Y-477.
Form entry: value (mg/L) — number only.

Example entries begin here.
Molecule: C=C1C(=O)c2ccccc2OC1c1ccc2ccccc2c1 (stereo not shown) [compound 24, 3-methylene-2-(2-naphthyl) chromanone]
MIC [mg/L]: 100
//
Molecule: C=C1C(=O)c2ccccc2OC1c1cccc(Cl)c1 (stereo not shown) [Ex. 2, 3'-chloro-3-methylene flavanone]
MIC [mg/L]: 25
//
Molecule: C=C1C(=O)c2ccccc2OC1c1cccc2ccccc12 (stereo not shown) [Ex. 23, 3-methylene-2-(1-naphthyl) chromanone]
MIC [mg/L]: 100

What MIC value was documented for this molecule, C=C1C(=O)c2ccccc2OC1c1ccc([N+](=O)[O-])cc1 (stereo not shown) [Ex. 10, 4'-nitro-3-methylene flavanone] ?
25

Look up MIC: C=C1C(=O)c2ccccc2OC1c1ccc(OC)cc1 (stereo not shown) [Ex. 8, 4'-methoxy-3-methylene flavanone]
100
